# Test system: Fibroblast
# test-description: Multiplex assay against human fibroblast
# Format: toxicity, cell-based
# conditions: 12 h, 1 µM, compound concentration 1 uM, replicate 1
value-kind: Total Cell Count
Answer as a number with no unit attached.

Param readout = Total Cell Count; param system = Fibroblast; param query = CC[C@H](Nc1ncnc2[nH]cnc12)c1nc2cccc(F)c2c(=O)n1-c1ccccc1 ; response: value
222

Give Total Cell Count (Fibroblast) of the following compound: CN(c1cc(C(F)(F)F)nc(OCCC(=O)O)n1)c1cccc2c1CCC2
136

Recorded Total Cell Count for Cc1c(Nc2ccc(S(=O)(=O)N3CCN(C)CC3)cc2F)nc2ccc(Nc3cnn(C4CC4)c3)cn2c1=O with Fibroblast, please?
263

Reported Total Cell Count for Fibroblast, given CC(C)c1cc(Nc2nc(N3CCC[C@H](N)C3)ncc2C(N)=O)cc(C(C)C)n1 ?
127

Query for Fibroblast: what Total Cell Count does the record show for CCCc1cc(C)[nH]c(=O)c1CNC(=O)c1cc(-c2ccc(N3CCN(C(C)C)CC3)nc2)cc2c1cnn2C(C)C ?
77

Form entry - test system: Fibroblast; read-out: Total Cell Count; compound: CC(/C=C1\SC(=S)N(CCCC(=O)Nc2ccc(C(=O)O)c(O)c2)C1=O)=C\c1ccccc1
167

# get_value(readout= Total Cell Count, system= Fibroblast) for CC(C)C[C@H](NC(=O)[C@H](Cc1ccccc1)NC(=O)CNC(=O)CNC(=O)[C@@H](N)Cc1ccc(O)cc1)C(=O)O
95

Identify the measured Total Cell Count of Cc1c(Nc2ccc(S(=O)(=O)N3CCN(C)CC3)cc2F)nc2ccc(-c3cnn(C4CC4)c3)cn2c1=O for Fibroblast.
222

###

# Test system: Fibroblast
# test-description: Multiplex assay against human fibroblast
# Format: toxicity, cell-based
# conditions: 12 h, 10 µM, compound concentration 10 uM, replicate 2
Exercise: state measured Population Apoptotic (%) for each of the compounds provided.
Write down the numeric answer in % and omit the unit.

Any idea what Population Apoptotic (%) was measured for CC[C@@]1(O)C(=O)OCc2c1cc1n(c2=O)Cc2cc3ccccc3nc2-1 ?
50

Fill in the blank: the reported Population Apoptotic (%) of Oc1cccc(-c2nc(N3CCOCC3)c3oc4ncccc4c3n2)c1 is ____.
36

Which Population Apoptotic (%) is listed for N#Cc1cccc(C(=O)Nc2cc(-c3ccccc3)nn2-c2ccccc2)c1 ?
45

Using the record for Cc1c(P(=S)(c2ccccc2)c2ccccc2)n2ccccc2[n+]1C/C=C/c1ccccc1.[Br-] , report its Population Apoptotic (%).
94

# query: Population Apoptotic (%) of entry Cc1c(Nc2ccc(S(=O)(=O)N3CCN(C)CC3)cc2F)nc2ccc(Nc3cnn(C4CC4)c3)cn2c1=O
50

Report Population Apoptotic (%) for NC(=O)c1ccc2nc(-c3ccc(C4(N)CCC4)cc3)c(-c3ccccc3)n2n1 please.
20

What value of Population Apoptotic (%) has been recorded for this entry: CC(C)[C@H](CO)Nc1nc(Nc2cccc(Cl)c2)c2ncn(C(C)C)c2n1
83

###

# System: HEK-293T
# test-description: Incucyte cell viability with HEK293T; also: filed as whole numbers so only -1 and 0 and 1 occur
# Assay type: toxicity, cell-based
# conditions: human, 0 h, 10 µM, compound concentration 10 uM, replicate number 1, timepoint 0 hours
value-kind: Growth Rate
Reply: number alone, nothing else.

Fill in the recorded Growth Rate for this molecule, with HEK-293T as test system: C[C@@H](NC(=O)Nc1cc2[nH]ncc2c(CO)n1)c1ccccc1
0

Write down the reported Growth Rate of CCOP(=O)(OCC)C(=Cc1cc(C(C)(C)C)c(O)c(C(C)(C)C)c1)P(=O)(OCC)OCC , test system: HEK-293T.
0

Request body: readout Growth Rate, system HEK-293T, query CC(C)(O)c1cncc(-c2nc3ccc(F)cc3n2C2CC2)c1 . Return the value.
0

API: value(readout= Growth Rate, system= HEK-293T, query= NC(=O)[C@@H]1CCCN1C(=O)[C@H](Cc1cnc[nH]1)NC(=O)[C@@H]1CCC(=O)N1 )
0

Find Growth Rate (HEK-293T) for the entry c1cc(CN2CCCNCCNCCCNCC2)ccc1CN1CCCNCCNCCCNCC1
1

Kindly state the measured Growth Rate obtained for C/C(=C/C=C/C(C)=C/C(=O)O)c1cc(C(C)(C)C)cc(C(C)(C)C)c1OCC(F)F with HEK-293T.
0

What measured Growth Rate is associated with CCCOc1ccn2c(C(C)=O)cc(-c3cccc(OC)c3)c2c1 on HEK-293T?
0

For the record N#CC1(c2ccccn2)CCN(Cc2cc(C(=O)O)c(=O)n3ccccc23)CC1 , what value of Growth Rate is listed for HEK-293T?
1

Please state recorded Growth Rate (tested on HEK-293T) of Cn1cc(Cl)c2c(Oc3c(F)cc(Nc4cc(Cl)nc(N)n4)cc3F)ccnc21
0

Which Growth Rate is reported with HEK-293T for this entry: CNC(=O)Nc1ccc2c(c1)CC[C@@]21OC(=O)N(CC(=O)N(Cc2ccc(F)cc2)[C@@H](C)C(F)(F)F)C1=O ?
0

Lab note: need Growth Rate for Cc1cc(OCC(=O)O)cc(C)c1Cc1ccc(O)c(C(C)C)c1 on HEK-293T, anyone have it?
0

Reported Growth Rate for HEK-293T, given OCCn1cc(-c2ccc3c(c2)CCC3=NO)c(-c2ccncc2)n1 ?
0

Fill in the recorded Growth Rate for this molecule, with HEK-293T as test system: CC(C)(Cc1ccccc1)NCC(O)c1ccc(O)c(NS(C)(=O)=O)c1.Cl (stereo not drawn) [ZINTEROL HYDROCHLORIDE]
0

Field: Growth Rate (HEK-293T). Entry: COc1cc(C#N)ccc1S(=O)(=O)Nc1ccc2c(c1)cc(C)c(=O)n2C
1

Recall the recorded Growth Rate for COc1ncc(F)cc1CNc1ccc(Cc2c[nH]c3ncc(C)cc23)c(F)n1 with HEK-293T and state it.
0

For the record COc1cccc(-c2c(C)n(Cc3c(F)cccc3C(F)(F)F)c(=O)n(C[C@H](NCCCC(=O)[O-])c3ccccc3)c2=O)c1F.[Na+] [ELAGOLIX SODIUM] , what value of Growth Rate is listed for HEK-293T?
0

Requested read-out Growth Rate, target or system HEK-293T, entry O=C(NNS(=O)(=O)c1ccccc1)c1cc(-c2ccnnc2)ccc1F
0

Reported Growth Rate for HEK-293T, given COc1ccc2c(c1)O[C@@H](c1ccc(OC)c(OC)c1)C[C@H]2NC(=O)C1(c2ccc3c(c2)OC(F)(F)O3)CC1 ?
1
